System: HSD1 enzyme that is expressed in rabbit placenta tissue
assay summary: Inhibition of E1 to E2 conversion in rabbit placenta tissue homogenate
Assay type: biochemical
condition parameters: inhibitor 100 nM, 30 nM estrone, 30 min
Description: The assay is based on an enzymatic reaction where HSD1 enzyme that is expressed in rabbit placenta tissue converts its natural substance estrone (E1) to estradiol (E2) in the presence of a co-factor β-NADPH. Homogenization of rabbit placenta tissue: Weight a piece of the frozen tissue into a Precellys ck28 bead tube. […] Percent inhibition was calculated flowingly: % inhibition=100−% conversion.
Decision: Rabbit placenta inhibition % @100 nM >= 9% yields y, all other cases yield n.

Past entries and their recorded results:
COc1ccc(NC(=O)CC[C@@H]2C/C(=N\O)[C@@]3(C)CCC4c5ccc(Cl)cc5CCC4C23)nc1 (stereo partly shown) :: y
C[C@]12CCC3c4ccc(F)cc4CCC3C1[C@H](CCC(=O)Nc1ncc(F)cc1F)C/C2=N\O (stereo partly shown) :: n
C[C@]12CCC3c4ccc(Cl)cc4CCC3C1[C@H](CCC(=O)Nc1ccccn1)C/C2=N\O (stereo partly shown) :: y

Challenge: Kindly determine if Rabbit placenta inhibition % @100 nM recorded for CCN(CC)C(=O)CC[C@@H]1C/C(=N\O)[C@@]2(C)CCC3c4ccc(F)cc4CCC3C12 (stereo partly shown) is above or exactly 9%.
Response given: n

Challenge: Does the compound C[C@]12CCC3c4ccc(Cl)cc4CCC3C1[C@H](CCC(=O)Nc1cccc(F)n1)C/C2=N\O (stereo partly shown) have recorded Rabbit placenta inhibition % @100 nM that is 9% or more?
Response given: y

Challenge: For this compound, is measured Rabbit placenta inhibition % @100 nM 9% or higher? CC(C)c1ccc(NC(=O)CC[C@@H]2C/C(=N\O)[C@@]3(C)CCC4c5ccccc5CCC4C23)nc1 (stereo partly shown)
Response given: y

Origin of measurements: patent US20240309043A1
